- procedure.text: Therapeutic index, ration of TD50 for human foreskin fibroblast cell infected with Toxoplasma gondii to ID 50 for Toxoplasma gondii
- Format: cell-based
- condition.description: read-out: TI
Recorded measurements of selectivity ratio, one per entry

* O=C1c2ccc(Cl)cc2-n2c1nc1ccccc1c2=O | > 80
* CC(=O)O/N=C1/C(c2c(O)[nH]c3ccccc23)=Nc2ccccc21 | 100
* O=C1Nc2ccccc2/C1=C1/Nc2ccccc2/C1=N\OCC(O)CO (centres undefined) | > 2

Attention now shifts to the item below.
// field: selectivity ratio; key: O=C1C(c2c(O)[nH]c3ccc(Cl)cc23)=Nc2ccccc21 ; value = > 8
